For each entry below, report its IC50 value.
- Protocol Details: Cytotoxicity against IPECJ2 cells assessed as cell death after 18 to 24 hrs by MTT assay
- Type: cell-based
- Test Context: Sus scrofa, IPEC-J2
One number for each entry, in µM.

Use the examples below as a reference point.
* H-LRPLLRPLLRPLLRPLLRPLLRPLLRPL-NH2 | 10.7
* H-IRPIIRPIIRPIIRPIIRPIIRPIIRPI-NH2 | 126

Report IC50 for every entry below.
1. H-IKPIIKPIIKPIIKPIIKPIIKPIIKPI-NH2
2. H-LKPLLKPLLKPLLKPLLKPLLKPLLKPL-NH2

[345, 24.4]

Values from ChEMBL document CHEMBL4316596
